Test: qHTS for Inhibitors of Plasmodium falciparum (7G8) proliferation (AID 504316); further: nearly all actives have a fitted effect of over 65% in size
Details: P. falciparum 7G8 in erythrocytes, SYBR Green DNA, 72 h; series mostly up to 6.7 µM
Records with an inconclusive call do not appear. The source made the active and inactive calls. The call rests on the fitted dose curve; in most records, active means well fitted inhibition curve with a large enough effect; inconclusive means small, poorly fitted or top-dose-only effect; inactive means flat fitted curve, though single readings scatter.
Respond with a class label; see active, inactive

stdin: Per the records of this test, what outcome belongs to COC(=O)C1=C2C=C(C)CC(C)N2C(=O)NC1c1ccccc1 (stereo unspecified) ?
stdout: inactive

stdin: Returns: the outcome recorded for Cc1ccc(S(=O)(=O)NC(CCc2ccccc2)CC(=O)C(C)(C)C)cc1 (stereo unspecified) in this assay.
stdout: inactive

stdin: For COC(=O)N1C(C)=Cc2ccccc2C1CC(C)=CC(C)=O (stereo unspecified) , which call appears in the assay record?
stdout: inactive

stdin: Recorded test outcome, item CC(C)=CCC1(CC=C(C)C)C(=O)C(C(=O)c2ccccc2)=C2OC(C)(C)CCC2(CC=C(C)C)C1=O (stereo unspecified)
stdout: active

stdin: Could you please tell me the result logged for `O=C1CCCC2=C1[C@H]1O[C@](CCCCN3C(=O)c4ccccc4C3=O)(Cc3c1ccc1ccccc31)O2` in this assay?
stdout: active

stdin: Recorded test call requested for C=C(C(C)=O)C(O)c1cccc(OC)c1 (stereo unspecified)
stdout: inactive

stdin: Recorded call for `C[C@@H](ON=C1[C@H]2CCn3c(=O)n(-c4ccccc4)c(=O)n3[C@@H]2[C@H](O)[C@@H]2O[C@H]12)c1cn([C@@H]2COC[C@@H]2O)nn1` ?
stdout: inactive

stdin: Given `COC(=O)C1(C(=O)OC)Cc2conc2[C@@H]1c1ccccc1` , state the outcome it received in this test.
stdout: inactive

stdin: What did this assay record as the result for `CC1=CC[C@@H](C)O[C@@]2(C1)C(=O)Nc1cccc(Br)c12` ?
stdout: inactive

stdin: What was the test verdict on C=CCOC(=O)C(C(C)=O)[C@@H](NC(=O)OC)c1cccs1 (stereo partly specified) ?
stdout: inactive

stdin: Test call for this molecule, please: `COc1ccc(COC(=O)NN=C2C[C@@H](O)[C@@H](O)[C@@H]3[C@H]4C(=O)N(C[C@@H]5CCCO5)C(=O)[C@@H]4CC[C@H]23)cc1`
stdout: inactive

stdin: Fill in: this test's call for `CCN1C(=NCC(C)C)N[C@@H](CCc2ccccc2)[C@H](C(=O)OC)[C@H]1C` is ___
stdout: inactive

stdin: I'd appreciate the recorded outcome for COC(=O)NC(c1ccc2c(c1)OCO2)C(C(=O)OC)C(=O)OC (stereo unspecified) from this test.
stdout: inactive

stdin: Assay outcome for CCOC(=O)C1=CN(CCCc2cn(Cc3ccccc3)nn2)C(=O)NC1c1ccccc1 (stereo unspecified) : what was it?
stdout: inactive

stdin: Please state the recorded outcome for this molecule: `COc1cccc([C@H]2Oc3ccc(OC)cc3C(=NOCC[C@@H]3C=C[C@H](OC(C)=O)[C@@H](COC(C)=O)O3)[C@H]2O)c1`
stdout: inactive

stdin: Hello, I am checking results. What call was entered for COC(=O)CCCC1=CC2=CC(=O)C(C)(OC(=O)c3cccs3)C(=O)C2=CN1CCc1ccccn1 (stereo unspecified) ?
stdout: inactive

stdin: What was the test verdict on CCCCCCCc1cc2c(cn1)C(=O)C(C)(OC(C)=O)C(O)=C2Cl (stereo unspecified) ?
stdout: active

stdin: Per the records of this test, what outcome belongs to `COc1ccc(COC(=O)NN=C2C[C@@H](O)[C@@H](O)[C@@H]3[C@H]4C(=O)N(c5cccc(Oc6ccccc6)c5)C(=O)[C@@H]4CC[C@H]23)cc1` ?
stdout: inactive

stdin: Called result for `CC(=O)OC[C@H]1O[C@H](CC=NOCC[C@@H]2C=C[C@@H](OC(C)=O)[C@@H](COC(C)=O)O2)C=C[C@@H]1OC(C)=O`
stdout: inactive

stdin: Returns: the outcome recorded for CCCCCCCC1=CC2=CC(=O)C(C)(OC(C)=O)C(=O)C2=CN1CCc1ccccc1 (stereo unspecified) in this assay.
stdout: inactive

stdin: Tell me the recorded outcome of this test for `COC(=O)C(C(=O)OC)c1ccccc1[N+](=O)[O-]` .
stdout: inactive

stdin: Answer briefly: the call reported for `COC(=O)[C@H](COC(C)(C)C)NC(=O)O[C@@H]1C(=O)c2cc(OC)ccc2O[C@H]1c1ccc(OC)c(Br)c1` in this assay.
stdout: inactive

stdin: What did the test return for CC12C=C(C=Cc3ccc(Br)cc3)C(C)(C1)C(c1ccc(Br)cc1)CC2=O (stereo unspecified) ?
stdout: active

stdin: Please let me know the test result on file for COC1=CC2C(=O)C(C1=O)[C@H](c1ccccc1)[C@H]2C (stereo partly specified) .
stdout: inactive

stdin: Call for entry `CCOC(=O)OC[C@H]1O[C@H](C#Cc2ccc(C)cc2C)C=C[C@H]1OC(=O)OCC` :
stdout: inactive

stdin: Could you please tell me the result logged for COC(=O)CCCC1=CC2=CC(=O)C(C)(OC(=O)c3cccs3)C(=O)C2=CN1C1CCCCC1 (stereo unspecified) in this assay?
stdout: inactive

stdin: What call does the record list for `CC(C)[C@@H](OCc1ccccc1)[C@H](C)C=NOC[C@@H](O)COCc1ccco1` ?
stdout: inactive

stdin: Recorded call for CCN1C(=NCc2cc(OC)c(OC)c(OC)c2)NC(c2cccc(F)c2)C(C(=O)OC)=C1C (stereo unspecified) ?
stdout: active

stdin: Hi team, can someone confirm the assay call for `C#CCCCON=C1C[C@@H](O)[C@H](O)[C@H]2[C@@H]3C(=O)N(C4CCCCC4)C(=O)[C@@H]3CC[C@H]12` ?
stdout: inactive

stdin: Test call, this molecule: `COC(=O)[C@H]1[C@H](CCc2ccccc2)NC(=O)N(Cc2ccccc2)[C@H]1C`
stdout: inactive

stdin: Hi team, can someone confirm the assay call for C=C(C)CCCN1C=C(C(C)=O)C(c2ccccc2)NC1=O (stereo unspecified) ?
stdout: inactive

stdin: Fill in: this test's call for C=CCN=C1NC(c2cccc(F)c2)C(C(=O)OC)=C(C)N1Cc1ccccc1 (stereo unspecified) is ___
stdout: inactive

stdin: Dear all, I need the recorded test outcome for `CC(=O)OC[C@H]1O[C@H](c2cc(C)cc(C)c2)C=C[C@H]1OC(C)=O` , thank you.
stdout: inactive

stdin: Called result for `C[C@@H]1C(c2ccccc2)=Cc2[nH]c(=O)[nH]c2C[C@@H]1C(=O)N1CCCC1`
stdout: inactive

stdin: So what was the verdict on `CC(C)CON=C1C[C@@H](O)[C@@H](O)[C@@H]2[C@H]3C(=O)N(Cc4ccccc4)C(=O)[C@@H]3CC[C@@H]12` in this test?
stdout: inactive

stdin: I would be grateful if you could indicate the recorded call for COc1ccc(CN2C=C3C(=O)C(C)(OC(=O)C4CCCC4)C(=O)C=C3C=C2c2ccsc2)cc1 (stereo unspecified) .
stdout: inactive

###

Target: Atrial natriuretic peptide receptor 1 (Homo sapiens) (UniProt P16066)
Sequence (P16066 whole entry, looked up): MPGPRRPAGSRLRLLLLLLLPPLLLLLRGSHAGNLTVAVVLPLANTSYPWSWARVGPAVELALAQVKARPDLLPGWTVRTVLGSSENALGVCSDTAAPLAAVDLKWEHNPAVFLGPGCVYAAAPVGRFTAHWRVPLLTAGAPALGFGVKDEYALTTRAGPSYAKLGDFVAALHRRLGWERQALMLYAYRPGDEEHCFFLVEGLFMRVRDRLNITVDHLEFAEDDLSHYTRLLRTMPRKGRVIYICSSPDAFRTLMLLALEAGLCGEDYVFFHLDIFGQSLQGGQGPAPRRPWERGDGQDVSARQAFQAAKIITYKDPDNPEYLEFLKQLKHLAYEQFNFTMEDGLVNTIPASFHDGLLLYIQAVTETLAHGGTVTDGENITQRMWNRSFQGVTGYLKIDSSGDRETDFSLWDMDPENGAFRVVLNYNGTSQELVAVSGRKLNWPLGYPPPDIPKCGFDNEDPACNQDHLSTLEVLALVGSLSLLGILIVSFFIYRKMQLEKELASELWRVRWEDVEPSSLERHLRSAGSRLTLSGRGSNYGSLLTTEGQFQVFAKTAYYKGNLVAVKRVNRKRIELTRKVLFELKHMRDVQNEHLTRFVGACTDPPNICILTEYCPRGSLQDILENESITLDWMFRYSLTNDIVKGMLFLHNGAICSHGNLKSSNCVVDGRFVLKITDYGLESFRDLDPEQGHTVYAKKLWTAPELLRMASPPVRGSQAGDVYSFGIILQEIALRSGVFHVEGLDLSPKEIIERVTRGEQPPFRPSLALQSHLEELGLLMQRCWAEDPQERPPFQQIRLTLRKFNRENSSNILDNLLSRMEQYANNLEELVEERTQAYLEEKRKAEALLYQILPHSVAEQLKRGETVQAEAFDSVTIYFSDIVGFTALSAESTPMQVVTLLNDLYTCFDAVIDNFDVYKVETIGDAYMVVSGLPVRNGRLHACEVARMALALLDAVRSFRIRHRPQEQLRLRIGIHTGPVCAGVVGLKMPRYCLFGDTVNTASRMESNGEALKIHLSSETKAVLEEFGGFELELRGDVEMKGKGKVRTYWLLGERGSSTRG
Assay: Natriuretic polypeptide receptor (hNpr1) antagonism - Pilot CMLD screen (AID 1347052);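 further: cGMP level read as GloSensor luciferase luminescence after agonist stimulation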
Details: HEK293 hNpr1 GloSensor cGMP luminescence, ANP-stimulated; series mostly up to 9.22 µM
Source text: […] 7. […] GloSensor baseline pre-read luminescence measured using CCD-based camera (Viewlux). […] 10. […] GloSensor post-hNppA luminescence measured using CCD-based camera (Viewlux). […] 1. […] Cells counted with Invitrogen Countess (30,000,000 - 50,000,000 cells/flask). […]
Inconclusive results are not listed. Calls of active or inactive are those of the source. The call rests on the fitted dose curve.
Could you please pick one outcome from this set? active, inactive

stdin: What call does the record list for `COC(=O)c1nnc(N[C@@H](Cc2c[nH]c3ccccc23)C(=O)OC)nc1C(=O)OC` ?
stdout: inactive

stdin: // outcome(item) with item = `COc1cccc(CC(=O)N2CCc3nc(COc4ccccc4)c4c(c3C2)CO[C@@H](C)C4)c1`
stdout: inactive

stdin: Status in this test for CCCCC1=CC2=C(c3ccco3)C(=O)C(C)(OC(=O)c3ccc(OC)cc3)C(=O)C2=CN1Cc1ccc2c(c1)OCO2 (centres undefined) ?
stdout: inactive

stdin: Field: outcome | Entry: `CC(=O)Nc1ccc(S(=O)(=O)N2CCc3nc(-c4ccccc4)c4c(c3C2)CO[C@@H](C)C4)cc1`
stdout: inactive

stdin: Record lookup: outcome of this test for CCC12C=C(C=Cc3ccccc3)C(CC)(C1)C(c1ccccc1)CC2=O (centres undefined) ?
stdout: inactive

stdin: GET /call?item= `C=CCOC(=O)N[C@H](C(C(=O)OC)=C(C)NCc1ccccc1)c1ccc(Br)cc1` returns the recorded outcome of this test.
stdout: inactive

stdin: What outcome does the record of this test show for `COc1ccc(-c2nc(-c3ccccc3)oc2Nc2ccc3ccccc3c2)cc1` ?
stdout: inactive

stdin: Can you look up the reported call for `CC(C)OC(=O)[C@@H]1CC[C@H](C)[C@@H](CCC[C@@H]2CC=C[C@H](CC#N)O2)O1` for me?
stdout: inactive

stdin: Any idea what this test logged for `O=C1[C@H]2[C@@H]3[C@@H](O)[C@H](O)CC(=NOCc4ccccc4)[C@H]3CC[C@H]2C(=O)N1C1CCCCC1` ?
stdout: inactive

stdin: Entry `C=CCOC(=O)N[C@H](C(C(=O)OC)=C(C)NCc1ccccc1)c1cccc(OC)c1` : call = ?
stdout: inactive

stdin: // param item: COC(=O)C1=C(C)N(Cc2ccccc2)C(=NCCc2cccnc2)NC1c1ccccc1 (centres undefined) ; yields the recorded call
stdout: inactive

stdin: Which outcome did this test record for the compound `COc1cccc([C@@H]2[C@@H](C)CC[C@@H]3C(=O)NC[C@H](O)CN32)c1` ?
stdout: inactive

stdin: Give the logged outcome of this assay for the following compound: `CC(C)[C@@H](OCc1ccccc1)[C@H](C)C=NOC[C@@H](C)[C@H](OCc1ccccc1)C(C)C`
stdout: inactive

stdin: Could you check what this test reported for `C#CCN1C(=O)[C@@]2(CC(C)=CC[C@@H](C)O2)c2ccccc21` ?
stdout: inactive

stdin: // outcome(item) with item = `C=C(C[C@]1(C(=O)OC)C[C@]2(CC=C(C)C)C(=O)C(C(=O)CC(C)C)=C(O)[C@@](CC=C(C)C)(C1)C2=O)C(=O)OC`
stdout: inactive

stdin: What classification did C=C(C)C(O)C=CC=Cc1ccccc1 (centres undefined) end up with in this test?
stdout: inactive

stdin: Per the assay record, what outcome was assigned to CCCCCCCC1=Cc2ccccc2C(CC(=O)c2ccccc2)N1C(=O)OC (centres undefined) ?
stdout: inactive

stdin: Recorded test call requested for `O=C1CCCC=C1[C@@H](O)CCOC(c1ccccc1)(c1ccccc1)c1ccccc1`
stdout: inactive

stdin: Assay outcome for `C=CCN1C(=O)CC[C@@]23C1=NC(C(=O)OC)=C(C(=O)OC)[C@@H]2N(CC=C)c1ccccc13` : what was it?
stdout: active
